Recorded measurements of Log partition coefficient, one per entry
# condition-context: octanol/water at 20° C.
Counter-ions that a name gives are not always drawn.
API note: the answer field is a bare number with no unit suffix.

A selection of reference data follows.
| compound | reported-value |
| --- | --- |
| CCC1(c2ccccc2)C(=O)NC(=O)NC1=O [5-ethyl-5-phenyl barbituric acid, reference compound] | 1.42 |
| CC(=O)Nc1ccccc1C(=O)O | 1.88 |
| CCOC(=O)c1cccnc1 [ethyl nicotinate] | 1.32 |
| CC(N)Cc1ccccc1 (stereo not drawn) [amphetamine, reference compound] | 1.63 |
| Oc1ccccc1O [o-dihydroxybenzene] | 0.80 |

The compound listed as CCOC(=O)CC(O)(CC(=O)OCC)C(=O)OCC [triethyl citrate] shows Log partition coefficient equal to 0.67

The compound listed as c1ccc2[nH]cnc2c1 shows Log partition coefficient equal to 1.34

The compound listed as CC1(C)SC2C(NC(=O)C(O)c3ccccc3)C(=O)N2C1C(=O)O (stereo not drawn) [α-hydroxy benzyl penicillin] shows Log partition coefficient equal to 1.40

The compound listed as NS(=O)(=O)c1ccc([N+](=O)[O-])cc1 [p-nitrobenzene sulphonamide] shows Log partition coefficient equal to 0.64

Source listed as patent US4699924A.
